Tested on: MT-4 cells
Assay: Cytotoxicity in mock-infected MT-4 cells
Format: cell-based
Details: concentration reducing viability of mock-infected MT4 cells by 50%; mean ± SD
quantity.measured: CC50 (µM)
Numbers only; they are read as µM.

Recorded CC50 of Cc1cccnc1CN(CCCCN)Cc1nccc2cc(F)ccc12 [Compound 24c] , please.
30.8

* * *

Target: CXCR4 (Homo sapiens, UniProt P61073)
Sequence (P61073 whole entry): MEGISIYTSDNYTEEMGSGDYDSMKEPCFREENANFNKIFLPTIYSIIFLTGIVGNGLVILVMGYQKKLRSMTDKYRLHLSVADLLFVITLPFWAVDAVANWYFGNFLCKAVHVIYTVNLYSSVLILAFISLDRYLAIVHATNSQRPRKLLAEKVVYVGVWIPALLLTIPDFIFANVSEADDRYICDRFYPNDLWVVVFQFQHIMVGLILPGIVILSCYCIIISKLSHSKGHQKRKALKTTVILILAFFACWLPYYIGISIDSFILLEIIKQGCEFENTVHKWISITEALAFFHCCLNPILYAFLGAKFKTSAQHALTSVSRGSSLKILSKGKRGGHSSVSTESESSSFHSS
Assay: CXCL12-induced calcium mobilization assay in U87.CD4.CXCR4 cells (FLIPR)
Type: cell-based
Settings: concentration needed to inhibit CXCL12-induced calcium signaling by 50%, 6.25 nM CXCL12, mean ± SD
Protocol: First, the ability of the compounds to compete with fluorescently labeled CXCL12 (CXCL12^AF647) for binding at CXCR4 was determined. […] Finally, given the role of CXCR4 as a major coreceptor for HIV entry, the antiviral activity of the compounds against the X4-tropic wild type HIV-1 NL4–3 strain and the HIV-2 ROD strain was determined in MT-4 cells. In parallel, the cytotoxicity of the compounds for uninfected MT-4 cells was assessed. […]
Catalogue of molecules with associated log10 IC50
Form field - Quantity: IC50; Unit: µM; Scale: log10

Example entries and their recorded answers appear below.
molecule | log10 IC50
Cc1cccnc1CN(CCCCN)Cc1ccccn1 | -0.74
NCCCCN(Cc1nccc2cc(Br)ccc12)C1CCCc2cccnc21 (centres unmarked) [Compound 19d] | -0.36
Cc1cccnc1CN(CCCCN)Cc1nccc2cc(F)ccc12 [Compound 24c] | -2.21
Cc1cccnc1CN(CCCCN)Cc1nccc2cc(Br)ccc12 [Compound 24d] | -0.16

Here is another molecule to look at.
What reported log10 IC50 corresponds to COc1ccc2c(CN(CCCCN)C3CCCc4cccnc43)nccc2c1 (centres unmarked) [Compound 19b] on CXCR4 (Homo sapiens, UniProt P61073)?
-1.55

* * *

Test system: HIV-1 NL4.3
Experiment: Anti-HIV-1 assay in MT-4 cells (tetrazolium-based colorimetric, cytopathic effect)
Assay type: cell-based
Settings: Human immunodeficiency virus 1, MT4; 50% protection of MT-4 cells against HIV-induced cytopathicity; mean ± SD; read-out: HIV-1 NL4.3 EC50
Catalogue of compounds with associated EC50

Example entries and their recorded answers appear below.
compound | reported.value
Cc1cccnc1CN(CCCCN)Cc1nccc2cc(Br)ccc12 [Compound 24d] | 2540 nM
Cc1cccnc1CN(CCCCN)Cc1nccc2cc(F)ccc12 [Compound 24c] | 6.2 nM
Cc1cccnc1CN(CCCCN)Cc1nccc2ccccc12 [Compound 24e] | 770 nM

Recorded EC50 of COc1ccc2c(CN(CCCCN)Cc3ncccc3C)nccc2c1 [Compound 24b] , please.
> 9270 nM

* * *

Target: CXCR4 (Homo sapiens, UniProt P61073)
Test: CXCL12AF647 competition binding assay with Jurkat cells (flow cytometry)
Parameters: endogenous in cells; host or cells: Jurkat cells
Conditions: concentration needed to inhibit CXCL12 receptor binding by 50%; Jurkat cells, 2.9 nM CXCL12AF647; mean ± SD
Records here are stratified by IC50; strata: bottom = under 6 nM, middle = from 6 nM up to 30 nM, top = 30 nM and over

compound | category.label
Cc1cccnc1CN(CCCCN)Cc1nccc2ccccc12 [Compound 24e] | middle
COc1cc2ccnc(CN(CCCCN)Cc3ncccc3C)c2cc1OC [Compound 24a] | bottom
COc1ccc2c(CN(CCCCN)C3CCCc4cccnc43)nccc2c1 (centres unmarked) [Compound 19b] | bottom
Cc1cccnc1CN(CCCCN)Cc1nccc2cc(F)ccc12 [Compound 24c] | bottom
NCCCCN(Cc1nccc2cc(F)ccc12)C1CCCc2cccnc21 (centres unmarked) [Compound 19c] | middle

# bin lookup: classify NCCCCN(Cc1nccc2cc(Br)ccc12)C1CCCc2cccnc21 (centres unmarked) [Compound 19d] by its IC50
middle

# bin lookup: classify COc1cc2ccnc(CN(CCCCN)C3CCCc4cccnc43)c2cc1OC (centres unmarked) [Compound 19a] by its IC50
middle

* * *

Biological target: CXCR4 (Homo sapiens)
Assay: CXCL12-induced calcium mobilization assay in U87.CD4.CXCR4 cells (FLIPR)
Format: cell-based
Conditions: concentration needed to inhibit CXCL12-induced calcium signaling by 50%, 6.25 nM CXCL12, mean ± SD
quantity.measured: pIC50
Schema: pIC50 number; meaning minus log10 of the concentration expressed in molar units.

Example entries and their recorded answers appear below.
compound | pIC50
NCCCCN(Cc1nccc2ccccc12)C1CCCc2cccnc21 (stereo not drawn) [Compound 19e] | 6.89
COc1cc2ccnc(CN(CCCCN)Cc3ncccc3C)c2cc1OC [Compound 24a] | 7.89
COc1cc2ccnc(CN(CCCCN)C3CCCc4cccnc43)c2cc1OC (stereo not drawn) [Compound 19a] | 7.60

Recorded pIC50 of COc1ccc2c(CN(CCCCN)Cc3ncccc3C)nccc2c1 [Compound 24b] , please.
5.41

Recorded pIC50 of NCCCCN(Cc1nccc2cc(F)ccc12)C1CCCc2cccnc21 (stereo not drawn) [Compound 19c] , please.
7.48

Recorded pIC50 of Cc1cccnc1CN(CCCCN)Cc1nccc2ccccc12 [Compound 24e] , please.
6.03

* * *

Catalogue of compounds with associated CC50 at 4 d
Assay: Cytotoxicity in mock-infected MT-4 cells
Format: cell-based
Settings: human, mock-infected (uninfected) MT-4 cells, concentration reducing viability of mock-infected MT4 cells by 50%; mean ± SD
Numbers only; they are read as µM.

compound | CC50 at 4 d [µM]
Cc1cccnc1CN(CCCCN)Cc1nccc2cc(F)ccc12 [Compound 24c] | 31
COc1ccc2c(CN(CCCCN)Cc3ncccc3C)nccc2c1 [Compound 24b] | 9.27

Here is another compound to look at.
Recorded CC50 at 4 d of NCCCCN(Cc1nccc2cc(Br)ccc12)C1CCCc2cccnc21 (stereo not shown) [Compound 19d] , please.
43.6

* * *

Catalogue of compounds with associated CC50 at 4 d
Assay: Cytotoxicity in mock-infected MT-4 cells
Format: cell-based
Conditions: human, mock-infected (uninfected) MT-4 cells, concentration reducing viability of mock-infected MT4 cells by 50%; mean ± SD
Experimental: First, the ability of the compounds to compete with fluorescently labeled CXCL12 (CXCL12^AF647) for binding at CXCR4 was determined. […] In parallel, the cytotoxicity of the compounds for uninfected MT-4 cells was assessed. […] The anti-HIV-1 and anti-HIV-2 activity in MT-4 cells was determined using a tetrazolium-based colorimetric assay. […]

compound | quantity.measured | reported.value
Cc1cccnc1CN(CCCCN)Cc1ccccn1 | CC50 at 4 d | 79.9 µM
NCCCCN(Cc1nccc2cc(F)ccc12)C1CCCc2cccnc21 (stereo not drawn) [Compound 19c] | CC50 at 4 d | 18.1 µM

Recorded CC50 at 4 d of c1cc(CN2CCCNCCNCCCNCC2)ccc1CN1CCCNCCNCCCNCC1 [Plerixafor, reference compound] , please.
6.29 µM

Recorded CC50 at 4 d of COc1cc2ccnc(CN(CCCCN)Cc3ncccc3C)c2cc1OC [Compound 24a] , please.
> 100 µM

Recorded CC50 at 4 d of Cc1cccnc1CN(CCCCN)Cc1nccc2cc(Br)ccc12 [Compound 24d] , please.
29.5 µM

Recorded CC50 at 4 d of NCCCCN(Cc1nccc2ccccc12)C1CCCc2cccnc21 (stereo not drawn) [Compound 19e] , please.
26.7 µM

Recorded CC50 at 4 d of NCCCCN(Cc1ccccn1)C1CCCc2cccnc21 (stereo not drawn) , please.
55.5 µM

Recorded CC50 at 4 d of COc1ccc2c(CN(CCCCN)C3CCCc4cccnc43)nccc2c1 (stereo not drawn) [Compound 19b] , please.
11.1 µM

Recorded CC50 at 4 d of Cc1cccnc1CN(CCCCN)Cc1nccc2ccccc12 [Compound 24e] , please.
40.9 µM

* * *

Catalogue of compounds with associated EC50
Test system: HIV-1 NL4.3
Assay: Anti-HIV-1 assay in MT-4 cells (tetrazolium-based colorimetric, cytopathic effect)
Assay type: cell-based
Conditions: Human immunodeficiency virus 1, MT4; 50% protection of MT-4 cells against HIV-induced cytopathicity; mean ± SD; read-out: HIV-1 NL4.3 EC50

Example entries and their recorded answers appear below.
compound | EC50
COc1cc2ccnc(CN(CCCCN)C3CCCc4cccnc43)c2cc1OC (stereo not drawn) [Compound 19a] | 74 nM
c1cc(CN2CCCNCCNCCCNCC2)ccc1CN1CCCNCCNCCCNCC1 [Plerixafor, reference compound] | 4.9 nM
COc1ccc2c(CN(CCCCN)C3CCCc4cccnc43)nccc2c1 (stereo not drawn) [Compound 19b] | 61 nM
NCCCCN(Cc1nccc2cc(Br)ccc12)C1CCCc2cccnc21 (stereo not drawn) [Compound 19d] | 550 nM
COc1cc2ccnc(CN(CCCCN)Cc3ncccc3C)c2cc1OC [Compound 24a] | 23 nM

Here is another compound to look at.
Recorded EC50 of NCCCCN(Cc1ccccn1)C1CCCc2cccnc21 (stereo not drawn) , please.
58 nM

* * *

Catalogue of compounds with associated pIC50
Molecular target: UniProt P61073
Assay: CXCL12AF647 competition binding assay with Jurkat cells (flow cytometry)
Set-up: endogenous in cells; host or cells: Jurkat cells
Settings: concentration needed to inhibit CXCL12 receptor binding by 50%; Jurkat cells, 2.9 nM CXCL12AF647; mean ± SD
Schema: pIC50 number; meaning minus log10 of the concentration expressed in molar units.

compound | reported.value
Cc1cccnc1CN(CCCCN)Cc1nccc2cc(Br)ccc12 [Compound 24d] | 7.41

What reported pIC50 corresponds to NCCCCN(Cc1nccc2ccccc12)C1CCCc2cccnc21 (stereo not shown) [Compound 19e] on UniProt P61073?
8.04

What reported pIC50 corresponds to Cc1cccnc1CN(CCCCN)Cc1ccccn1 [Compound 25] on UniProt P61073?
8.21

What reported pIC50 corresponds to COc1ccc2c(CN(CCCCN)Cc3ncccc3C)nccc2c1 [Compound 24b] on UniProt P61073?
6.05
